Test: Compound was evaluated for the ratio of apparent inactivation rate constant k2 to apparent binding constant Ki
Settings: read-out: k2 / Ki
I'd be grateful if you could share measured kinact/KI for these entries.
I'd appreciate it if you included the unit after the number.

Form: compound = COC(=O)/C=C/CNC(=O)[C@@H](CC(C)C)NC(C)=O ; kinact/KI = 2.46 M⁻¹ s⁻¹

Entry CC(=O)NC(Cc1ccccc1)C(=O)NC/C=C/C(=O)O (stereo not given) — recorded kinact/KI = 5 M⁻¹ s⁻¹

GET /value?item= COC(=O)/C=C/CNC(=O)[C@@H](CCSC)NC(C)=O &field=kinact/KI returns 2.06 M⁻¹ s⁻¹

Please fill in: kinact/KI reported for CC(=O)NC(Cc1ccccc1)C(=O)NC/C=C/C#N (stereo not given) = 1.7 M⁻¹ s⁻¹

Looking up COC(=O)/C=C/CNC(=O)[C@H](Cc1ccccc1)NC(C)=O , I found its kinact/KI recorded as 0.25 M⁻¹ s⁻¹

compound CC(=O)NC(Cc1ccccc1)C(=O)NC/C=C/C(N)=O (stereo not given) , kinact/KI observed: 1.1 M⁻¹ s⁻¹

The recorded kinact/KI for entry COC(=O)/C=C/CNC(=O)c1ccccc1 equals 0.05 M⁻¹ s⁻¹

Entry COC(=O)/C=C/CNC(=O)CCc1ccccc1 — recorded kinact/KI = 0.23 M⁻¹ s⁻¹

The recorded kinact/KI for COC(=O)/C=C/CNC(=O)C(Cc1ccccc1)NC(C)=O (stereo not given) is 26.1 M⁻¹ s⁻¹

kinact/KI in this record for CC(=O)NC(Cc1ccccc1)C(=O)NC/C=C/S(C)(=O)=O (stereo not given) : 18.7 M⁻¹ s⁻¹

Each recorded value in this set is attributed to ChEMBL document CHEMBL1125406.
